All figures here come from PubChem BioAssay (NCI).

Test system: MOLT-4 leukemia
procedure text: NCI-60 one-dose screen, 48 h (100 = growth as untreated, 0 = no growth, -100 = all killed)
recorded conditions: 10 µM unless noted
Experimental: Growth inhibition of the MOLT-4 human tumor cell line is measured as a screen for anti-cancer activity. Cells are grown in 96 well plates and exposed to the test compound for 48 hours. Compounds are tested at a single concentration, which is 10^-5 M for most compounds. The reported endpoint is percent growth (GI% or GIPRCNT), where numbers from 0 - 100% represent growth inhibition, and numbers from -100% - 0 represent cell death. For example, a value of 40 represents 60% growth inhibition. […]
Compounds without any hit were thinned out: in the full panel of roughly 83,000, 20% have a hit. Calls of active or inactive are those of the source. Rule for the calls: active = growth percent below 10; inactive = the rest.
measured attribute: growth

| compound | measured attribute | result |
| --- | --- | --- |
| CCOC(=O)c1nn(C2CCCCO2)c2ccc(NC(=O)CN3CCCC3)cc12 (stereo not given) | growth | 99.3% (inactive) |
| COc1ccc(CC(C#N)c2ccc(Cl)cc2)cc1 (stereo not given) | growth | 72.7% (inactive) |
| COC(=O)c1c(C)[nH]c(/C=C2\N=C(c3ccc[nH]3)C=C2OC)c1C | growth | 1.37% (active) |
| COc1ccc(C=C2c3ccccc3-c3ccccc32)cc1 | growth | 52.3% (inactive) |
| CCN(CC)c1ccc(/C=C/C=C2\NC(=O)NC2=O)cc1 | growth | 41.1% (inactive) |
| COC(=O)[C@@H](NC(=O)NC(=O)NC(=O)CI)C(C)C | growth | 10.6% (inactive) |
| COc1ccc2c(c1)C(C)Cc1c(Cl)nc(C)nc1N2C (stereo not given) | growth | 20.3% (inactive) |
| O=C1/C(=C/c2cccc(OCc3ccccc3)c2)Oc2cc(OCCN3CCCCC3)ccc21 | growth | 82.4% (inactive) |
| COc1ccc2nc3c(cc2c1)C(=O)CC(C(F)(F)F)C3 (stereo not given) | growth | 15.3% (inactive) |
| CC(=O)OC[C@]12CC[C@@H]([C@@H](C)C(N)=O)[C@@H]1[C@H]1CC[C@@H]3[C@@]4(C)CC[C@H](OC(C)=O)C(C)(C)[C@@H]4CC[C@@]3(C)[C@]1(C)CC2 | growth | -29.1% [100 µM] (active) |

----------
Test system: RPMI-8226 leukemia
procedure text: NCI-60 one-dose screen, 48 h (100 = growth as untreated, 0 = no growth, -100 = all killed)
recorded conditions: 10 µM unless noted
The panel holds about 83,000 compounds, 20% with a hit somewhere; the sample as a whole holds those more often. Active and inactive are the calls of the source. How the source made its calls: active means growth percent below 10; inactive means the rest.

| compound | growth |
| --- | --- |
| C=CCCC1(C)NC(=O)NC1=O (stereo not given) | 104% (inactive) |
| C#CC(OC(=O)N(C)C)(c1ccccc1)c1ccc(F)cc1 (stereo not given) | 128% (inactive) |
| COc1cccc(-c2[nH]c(=S)ncc2C(=O)c2ccccc2)c1 | 113% (inactive) |
| Cc1ccc(S(=O)(=O)Oc2ccc(Br)cc2Br)cc1 | 73.3% (inactive) |
| C=C(CN=[N+]=[N-])[C@@H]1CC[C@]2(C)[C@H](CC[C@@H]3[C@H]4[C@H]5OC(=O)[C@@]4(CCC5(C)C)CC[C@]32C)[C@@]1(C)CCC#N | 57% [100 µM] (inactive) |

----------
The following molecules are listed with their measured growth values.
Test system: SW-620 colon
procedure text: NCI-60 one-dose screen, 48 h (100 = growth as untreated, 0 = no growth, -100 = all killed)
recorded conditions: 10 µM unless noted
Procedure: Growth inhibition of the SW-620 human tumor cell line is measured as a screen for anti-cancer activity. Cells are grown in 96 well plates and exposed to the test compound for 48 hours. Compounds are tested at a single concentration, which is 10^-5 M for most compounds. The reported endpoint is percent growth (GI% or GIPRCNT), where numbers from 0 - 100% represent growth inhibition, and numbers from -100% - 0 represent cell death. For example, a value of 40 represents 60% growth inhibition. […]
About 83,000 compounds went through this panel and 20% of them were active in at least one assay; those are over-represented in the sample as a whole.
measured attribute: growth (%)

| molecule | measured attribute | unit text | result |
| --- | --- | --- | --- |
| CCCCC(CCCCCC(CCCC)C1NC(C)Cc2cc(OC)c(OC)cc21)C1NC(C)Cc2cc(OC)c(OC)cc21 (centres undefined) | growth | % | -80.8 |
| CCCn1ccnc1C(O)c1ccc(OCc2ccccc2)c(OC)c1 (centres undefined) | growth | % | 98 |
| CC1Cc2ccc(OCCN(C)C)cc2C1=O (centres undefined) | growth | % | 101 |
| CC(C)[C@H]1COC(=O)N1[C@@H]1C(=O)N([C@@H](CCC(=O)N2CCN(C3CCCC3)CC2)C(=O)N[C@@H]2CCCc3ccccc32)[C@@H]1/C=C/c1cccc(Cl)c1 | growth | % | 61.9 |
| CCOC(=O)c1cc(C#N)n2ncc3ccccc3c12 | growth | % | 98 |
| COc1ccc(-c2cc(-c3ccccc3)nc(SCCCCCC(=O)NO)n2)cc1 | growth | % | 29.7 |
| CC(C)(C)c1cc(C(=O)Nc2ccccc2C(=O)NCCN)cc(C(C)(C)C)c1 | growth | % | -56.8 |
| Cc1cccc(C[C@H](NC(=O)Nc2ccc(C)cc2F)C(=O)N[C@@H]2C(=O)N3C[C@H](O)C[C@H]3C(=O)N3CCN(C)C[C@H]3C(=O)N[C@@H](C)C(=O)N3C[C@H](C)C[C@H]3C(=O)O[C@H]2C)c1 | growth | % | 47.6 |
| COc1ccc(NC(=S)NNc2ccc(-c3ccc(OC)c(OC)c3)nn2)cc1 | growth | % | 102 |

----------
System: SK-MEL-2 melanoma
procedure text: NCI-60 one-dose screen, 48 h (100 = growth as untreated, 0 = no growth, -100 = all killed)
recorded conditions: 10 µM unless noted
About 83,000 compounds went through this panel and 20% of them were active in at least one assay; those are over-represented in the sample as a whole. Active and inactive are the calls of the source. Rule for the calls: active = growth percent below 10; inactive = the rest.
The following compounds are listed with their measured growth values.
measured attribute: growth

| compound | measured attribute | result |
| --- | --- | --- |
| CCCCCCCCCN(CCCCCCCCC)C(C)C(=O)c1ccc2cc(Br)c3ccccc3c2c1 (stereo unspecified) | growth | 125% (inactive) |
| C#CCNC(=O)CC[C@]1(C)[C@H]2CC[C@@H]3[C@@H]([C@@](C)(O)CCC=C(C)C)CC[C@@]3(C)[C@]2(C)CC[C@H]1C(=C)C | growth | 49.1% [100 µM] (inactive) |
| Cc1ccc(S(=O)(=O)n2cc(C(=O)C(=O)N3CCCCC3)c3ccccc32)cc1 | growth | 90.6% (inactive) |
| C=C(C)[C@@H]1CC[C@]2(COCCCN)CC[C@]3(C)[C@H](CC[C@@H]4[C@@](C)(CCCNCCCN)[C@H](C(=C)C)CC[C@]43C)[C@@H]12 | growth | -59.3% [100 µM] (active) |
| CCCCCCNC(=O)Nc1ncnc2c1ncn2-c1ccccc1 | growth | 91.3% (inactive) |
| Cc1ccc2c(c1)C(C)Cc1c(Cl)ncnc1N2C (stereo unspecified) | growth | -21.4% (active) |
| C=C(C)[C@@H]1CC[C@]2(COCCC#N)CC[C@]3(C)[C@H](CC[C@@H]4[C@@](C)(CCCNCCC#N)[C@H](C(=C)C)CC[C@]43C)[C@@H]12 | growth | 10% [100 µM] (inactive) |
| O=C(O)c1cn(C2CC2)c2cc(N3CCN(Cc4c(O)ccc5ccccc45)CC3)c(F)cc2c1=O | growth | 73.8% (inactive) |
| CC(C)=CC/C=C(/C)[C@H]1CC[C@]2(C)[C@@H]1CC[C@@H]1[C@@]3(C)CCCNC(C)(C)[C@@H]3CC[C@]12C | growth | -70% [100 µM] (active) |
| O=C(O)c1cn(C2CC2)c2cc(N3CCN(Cc4cc(Cl)ccc4O)CC3)c(F)cc2c1=O | growth | 88% (inactive) |
| c1ccc(-c2n[nH]c(-c3ccccn3)n2)nc1 | growth | 108% (inactive) |
| Cn1cc(-c2noc(-c3cn(C)c4ncc(F)cc34)n2)c2cc(Br)ccc21 | growth | 103% (inactive) |
| CCOC(=O)CC(c1ccccc1)C(C#N)c1ccccc1 (stereo unspecified) | growth | 106% (inactive) |
| O=S(=O)(NCCNc1nccc(-c2c(-c3cccc(F)c3)nc3occn23)n1)c1ccc(C(F)(F)F)cc1 | growth | 92.2% (inactive) |
| COc1ccc(OC)c([N+](=O)[O-])c1C(=O)CNC(C)=O | growth | 109% (inactive) |
| C=C(C)[C@@H]1CC[C@]2(C(=O)NCCNCCNCCN)CC[C@]3(C)[C@H](CC[C@@H]4[C@@]5(C)CCC(=O)C(C)(C)[C@@H]5CC[C@]43C)[C@@H]12 | growth | 56.4% [100 µM] (inactive) |
| CCc1ccc(-c2ccc(COc3ccc(CC4SC(=O)NC4=O)cc3)cc2)cc1 (stereo unspecified) | growth | 71.6% (inactive) |
| CC(=O)n1cc(C=O)c2ccccc21 | growth | 97.9% (inactive) |
| c1ccc2c(c1)CN(CCCN1CCOCC1)C2 | growth | 105% (inactive) |
| COc1cccc(-c2[nH]c(=S)ncc2C(=O)c2ccccc2)c1 | growth | 99.9% (inactive) |
| Nc1nc(N)c2c(n1)NC(c1ccc(F)cc1)C1CCc3ccccc3C1=N2 (stereo unspecified) | growth | 97.7% (inactive) |
| CC1=CC[C@@H]2C(C)(C)C(=O)CC[C@@]2(C)[C@@H]1COc1ccc2ccc(=O)oc2c1 | growth | 77% (inactive) |
| Cc1ccc(S(=O)(=O)N/N=C2\CC3CCC2(C)C3(C)C)cc1 (stereo unspecified) | growth | 76.8% (inactive) |
| CCCCC1COc2cccc3c2N1C=C/C3=C\C(=O)n1ccc2ccccc21 (stereo unspecified) | growth | 70.7% (inactive) |
| OC(c1ccc(Cl)cc1)(c1ccc(Cl)cc1)C(O)(c1ccc(Cl)cc1)c1ccc(Cl)cc1 | growth | 68.4% (inactive) |
| COc1ccc(C(=O)CSc2nccc(Nc3ccc(C(=O)O)cc3)n2)cc1 | growth | 103% (inactive) |
